test system: melanoma B-16 cells; assay: Malignant melanoma B-16 cells in vitro, cell count by Coulter Counter; type: cell-based; details: Mus musculus, B16, 48 h; 300 ug/ml, dissolved in ethanol; read-out: Percentage of controll cell growth (solution)
Record form. Attribute: activity at 300 µg/mL. Fill in for each entry.
Express it in %; write the number only.

Incoming: Please give the measured activity at 300 µg/mL for this molecule: O=C(NC(=O)c1c(F)cccc1F)Nc1ccc(Cl)cc1O
Outgoing: 0

Incoming: Query (molecule): O=C(NC(=O)c1ccccc1Cl)Nc1ccc(C(F)(F)F)cc1O ; field requested: activity at 300 µg/mL
Outgoing: 43

Incoming: May I ask what activity at 300 µg/mL has been recorded for O=C(NC(=O)c1ccccc1Cl)Nc1ccc(OC(F)(F)F)cc1 ?
Outgoing: 95

Incoming: Item under review: O=C(NC(=O)c1c(F)cccc1F)Nc1ccc(Cl)c(O)c1 . Reported activity at 300 µg/mL?
Outgoing: 0
